Origin of the recorded values: ChEMBL document CHEMBL1777785

- system_under_test: ATP-dependent translocase ABCB1 (Homo sapiens, UniProt P08183)
- Sequence (P08183 whole entry): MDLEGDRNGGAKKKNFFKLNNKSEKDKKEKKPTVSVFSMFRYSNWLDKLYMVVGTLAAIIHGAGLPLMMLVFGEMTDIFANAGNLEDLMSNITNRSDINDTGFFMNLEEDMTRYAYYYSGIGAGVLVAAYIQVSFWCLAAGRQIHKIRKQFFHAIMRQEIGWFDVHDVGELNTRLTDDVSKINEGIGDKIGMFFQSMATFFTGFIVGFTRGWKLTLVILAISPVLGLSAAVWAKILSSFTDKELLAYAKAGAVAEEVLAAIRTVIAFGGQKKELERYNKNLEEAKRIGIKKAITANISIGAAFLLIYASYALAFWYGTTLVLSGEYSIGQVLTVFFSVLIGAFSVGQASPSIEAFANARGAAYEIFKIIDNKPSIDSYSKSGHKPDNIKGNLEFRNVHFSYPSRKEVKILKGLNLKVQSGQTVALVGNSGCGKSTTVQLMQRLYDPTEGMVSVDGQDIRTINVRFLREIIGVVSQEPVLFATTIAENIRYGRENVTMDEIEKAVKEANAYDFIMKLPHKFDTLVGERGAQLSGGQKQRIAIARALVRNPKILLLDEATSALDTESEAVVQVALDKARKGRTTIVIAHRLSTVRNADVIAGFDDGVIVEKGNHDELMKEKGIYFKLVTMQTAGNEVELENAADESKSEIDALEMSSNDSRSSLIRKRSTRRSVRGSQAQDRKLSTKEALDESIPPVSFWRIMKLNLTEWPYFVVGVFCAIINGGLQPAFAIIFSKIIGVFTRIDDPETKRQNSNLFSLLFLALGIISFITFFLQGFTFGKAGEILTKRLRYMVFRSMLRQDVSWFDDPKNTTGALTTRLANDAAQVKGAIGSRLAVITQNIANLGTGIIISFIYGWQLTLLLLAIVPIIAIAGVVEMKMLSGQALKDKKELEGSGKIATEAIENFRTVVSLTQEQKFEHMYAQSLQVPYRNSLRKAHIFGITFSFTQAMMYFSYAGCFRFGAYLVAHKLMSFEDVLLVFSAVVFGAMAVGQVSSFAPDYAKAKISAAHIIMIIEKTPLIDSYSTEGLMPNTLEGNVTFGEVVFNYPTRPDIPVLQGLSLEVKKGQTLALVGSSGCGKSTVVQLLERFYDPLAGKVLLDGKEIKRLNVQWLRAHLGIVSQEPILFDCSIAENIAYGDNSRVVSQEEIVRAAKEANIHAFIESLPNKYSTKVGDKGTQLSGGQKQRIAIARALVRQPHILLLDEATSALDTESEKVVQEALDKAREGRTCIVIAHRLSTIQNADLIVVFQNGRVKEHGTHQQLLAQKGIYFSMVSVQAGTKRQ
- condition_label: l5178, 20 min, 100 µM
property: Alpha max

{"molecule": "CC(C)[C@H]1CC[C@H](C(=O)N[C@H](Cc2ccccc2)C(=O)O)CC1 [NATEGLINIDE]", "Alpha max": 0}
{"molecule": "C=CCc1ccccc1OCC(O)CNC(C)C (stereo not drawn)", "Alpha max": 0.05}
{"molecule": "O=C1CCc2ccc(OCCCCN3CCN(c4cccc(Cl)c4Cl)CC3)cc2N1", "Alpha max": 0.99}
{"molecule": "O=C1NCCN1CCN1CCC(c2cn(-c3ccc(F)cc3)c3ccc(Cl)cc23)CC1", "Alpha max": 0.74}

(A) CCN(CC)CCCN(c1ccccc1)C1Cc2ccccc2C1
(B) CC1(C)S[C@@H]2[C@H](NC(=O)[C@H](C(=O)O)c3ccsc3)C(=O)N2[C@H]1C(=O)O
Between item A and item B , which reported Alpha max is smaller? Please respond with the label that marks your chosen entry.
B

(A) O=C1Cc2cc(CCN3CCN(c4nsc5ccccc45)CC3)c(Cl)cc2N1
(B) CCOc1cc(CC(=O)N[C@@H](CC(C)C)c2ccccc2N2CCCCC2)ccc1C(=O)O [REPAGLINIDE]
Could you point out whether the larger Alpha max belongs to A or to B ? Select an item and report its label.
B
